The origin of these recorded values is PubChem BioAssay (NCI).

tested on: SR leukemia; assay: NCI tumour cell line growth inhibition, 48 h
measured_quantity: log10 of TGI (log10 of the value in µM)

>  <compound>
COCC(=O)NC/C=C/c1ccc2ncnc(Nc3ccc(Oc4ccc(C)nc4)c(C)c3)c2c1

>  <log10 of TGI>
1.70

$$$$
>  <compound>
COc1cc2c(cc1OC)-c1ncc3cc(OC)c(OC)c(OC)c3c1C2

>  <log10 of TGI>
1.60

$$$$
>  <compound>
Fc1cc2nc3n(c2cc1F)C(c1c(Cl)cccc1Cl)SC3 (stereo not drawn)

>  <log10 of TGI>
1.69

$$$$
>  <compound>
C[C@@H]1OC(=O)NN=C1c1ccc(-c2ccc(F)cc2)c(C(F)(F)F)c1

>  <log10 of TGI>
1.11

$$$$
>  <compound>
Nc1nc(CC2(O)CCCCC2)cc(-c2ccccc2)n1

>  <log10 of TGI>
1.70

$$$$
>  <compound>
C/C(=N\NS(=O)(=O)c1c(C)cc(C)cc1C)c1ccc[n+]([O-])n1

>  <log10 of TGI>
1.76

$$$$
>  <compound>
CCCCn1c(C)c2c(c1C)C(=O)N(CCN1CCN(c3ccccc3Cl)CC1)C2=O

>  <log10 of TGI>
1.77

$$$$
>  <compound>
O=C(CC1SC(=Nc2ccccc2Cl)NC1=O)Nc1ccc(Cl)cc1 (stereo not drawn)

>  <log10 of TGI>
1.84

$$$$
>  <compound>
CN1CCN(c2ccc(-c3cccc(CN4CCOCC4)c3)cc2NC(=O)c2c[nH]c(=O)cc2C(F)(F)F)CC1

>  <log10 of TGI>
1.80

$$$$
>  <compound>
COc1ccc(-c2cc(-c3ccc(Cl)cc3)nc(SCCCCCCC(=O)NO)n2)cc1

>  <log10 of TGI>
0.56

$$$$
